Target: PI3K (p110δ/p85α) (Homo sapiens)
Sequence (O00329 whole entry): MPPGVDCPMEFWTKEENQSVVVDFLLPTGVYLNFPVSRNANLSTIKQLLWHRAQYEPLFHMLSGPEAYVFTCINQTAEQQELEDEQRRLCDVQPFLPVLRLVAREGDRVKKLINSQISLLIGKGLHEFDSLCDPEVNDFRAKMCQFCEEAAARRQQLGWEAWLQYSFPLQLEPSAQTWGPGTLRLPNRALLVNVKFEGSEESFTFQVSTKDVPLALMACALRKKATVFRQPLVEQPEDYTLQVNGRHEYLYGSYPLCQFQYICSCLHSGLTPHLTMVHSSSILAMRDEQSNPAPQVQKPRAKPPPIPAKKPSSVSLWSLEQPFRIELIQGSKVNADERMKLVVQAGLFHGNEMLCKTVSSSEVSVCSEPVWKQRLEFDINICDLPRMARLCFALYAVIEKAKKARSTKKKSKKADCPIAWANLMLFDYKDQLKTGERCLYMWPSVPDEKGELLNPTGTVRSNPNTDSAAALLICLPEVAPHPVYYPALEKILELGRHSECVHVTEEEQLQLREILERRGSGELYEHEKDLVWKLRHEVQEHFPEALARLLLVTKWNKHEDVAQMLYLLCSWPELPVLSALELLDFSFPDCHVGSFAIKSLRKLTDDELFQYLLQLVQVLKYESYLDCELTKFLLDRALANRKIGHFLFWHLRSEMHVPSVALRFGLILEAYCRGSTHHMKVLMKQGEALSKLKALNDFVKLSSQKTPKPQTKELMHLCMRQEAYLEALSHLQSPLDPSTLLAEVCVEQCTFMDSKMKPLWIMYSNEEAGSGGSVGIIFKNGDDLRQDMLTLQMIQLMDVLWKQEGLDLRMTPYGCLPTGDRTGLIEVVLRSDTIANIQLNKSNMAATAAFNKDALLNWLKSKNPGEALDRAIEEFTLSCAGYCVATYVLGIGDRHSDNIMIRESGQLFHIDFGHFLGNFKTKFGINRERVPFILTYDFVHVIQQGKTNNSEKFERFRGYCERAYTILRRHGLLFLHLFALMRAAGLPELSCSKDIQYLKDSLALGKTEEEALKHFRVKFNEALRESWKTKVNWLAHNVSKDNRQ
Sequence (P27986 whole entry partner): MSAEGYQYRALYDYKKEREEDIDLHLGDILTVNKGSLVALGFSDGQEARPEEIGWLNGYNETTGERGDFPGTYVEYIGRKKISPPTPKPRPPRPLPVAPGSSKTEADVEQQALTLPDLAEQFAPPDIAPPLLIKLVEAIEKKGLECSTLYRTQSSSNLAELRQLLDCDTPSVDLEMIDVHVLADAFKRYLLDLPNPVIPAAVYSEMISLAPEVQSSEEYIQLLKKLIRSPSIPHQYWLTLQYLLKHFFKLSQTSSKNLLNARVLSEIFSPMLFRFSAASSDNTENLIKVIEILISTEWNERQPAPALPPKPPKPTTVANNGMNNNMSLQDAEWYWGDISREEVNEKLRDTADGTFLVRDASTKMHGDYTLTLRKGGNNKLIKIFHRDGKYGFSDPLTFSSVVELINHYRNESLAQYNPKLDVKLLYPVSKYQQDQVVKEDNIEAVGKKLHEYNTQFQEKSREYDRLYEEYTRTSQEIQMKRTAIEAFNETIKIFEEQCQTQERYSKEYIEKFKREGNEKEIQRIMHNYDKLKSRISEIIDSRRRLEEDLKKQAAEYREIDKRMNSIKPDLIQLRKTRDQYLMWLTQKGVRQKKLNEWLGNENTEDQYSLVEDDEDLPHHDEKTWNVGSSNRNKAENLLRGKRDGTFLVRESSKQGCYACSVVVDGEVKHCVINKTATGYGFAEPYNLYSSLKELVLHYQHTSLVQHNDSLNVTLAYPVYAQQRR
Assay: PI3Kδ assay (ADP-Glo Kinase Assay)
Type: biochemical
Conditions: recombinant enzyme; IC50 (nM) or max inhibition (%) at 0.5 μM
recorded-metric: IC50
Please report the result as a number followed by the unit.

Solved entries (count: 5):
>  <compound>
Cc1nc([C@@H](C)c2cc(Cl)c(F)c(C(=O)N[C@H]3CC[C@@H](O)CC3)c2OC(C)C)n2ccnc(N)c12 [Compound 62]

>  <assayed-target>
PI3K (p110δ/p85α) (Homo sapiens)

>  <IC50>
1.4 nM

$$$$
>  <compound>
Cc1nc([C@@H](C)c2cc(Cl)c(F)c(C(=O)NCCC3CCOCC3)c2OC(C)C)n2ccnc(N)c12 [Compound 26]

>  <assayed-target>
PI3K (p110δ/p85α) (Homo sapiens)

>  <IC50>
0.86 nM

$$$$
>  <compound>
Cc1nc([C@@H](C)c2cc(Cl)c(F)c(C(=O)N[C@H](C)[C@@H](C)O)c2OC(C)C)n2ccnc(N)c12 [Compound 72]

>  <assayed-target>
PI3K (p110δ/p85α) (Homo sapiens)

>  <IC50>
6.8 nM

$$$$
>  <compound>
Cc1nc([C@@H](C)c2cc(Cl)c(F)c(C(=O)N(C)C)c2OC(C)C)n2ccnc(N)c12 [Compound 32]

>  <assayed-target>
PI3K (p110δ/p85α) (Homo sapiens)

>  <IC50>
3.2 nM

$$$$
>  <compound>
Cc1nc(C(C)c2cc(Cl)c(F)c(C(=O)NC3(C(=O)O)CC3)c2OC(C)C)n2ccnc(N)c12 (stereo not shown) [Compound 2]

>  <assayed-target>
PI3K (p110δ/p85α) (Homo sapiens)

>  <IC50>
14 nM

$$$$

Prompt: # return recorded IC50 for input Cc1nc(C(C)c2cc(Cl)c(F)c(C(=O)NC[C@@H](C)O)c2OC(C)C)n2ccnc(N)c12 (stereo partly shown) [Compound 9]
Response: 2.9 nM

Prompt: # return recorded IC50 for input CNC(=O)c1c(F)c(Cl)cc([C@H](C)c2nc(C)c3c(N)nccn23)c1OC(C)C [Compound 27]
Response: 0.93 nM

---

Test: Pharmacokinetic properties in Sprague-Dawley rats after intravenous (IV) and oral (PO) administration
Assay type: in vivo
Details: male, Sprague-Dawley, plasma, 5 mg/kg; rat, PO 5 mpk
recorded-metric: AUC(0-inf) (µg·h/mL)
Please give a number only; it is taken to be in µg·h/mL.

Prompt: # return recorded AUC(0-inf) for input Cc1nc([C@@H](C)c2cc(Cl)c(F)c(C(=O)N[C@H]3CC[C@H](O)CC3)c2OC(C)C)n2ccnc(N)c12
Response: 0.159

---

Molecular target: PI3K (p110α/p85α) (Homo sapiens, UniProt P42336)
Sequence (P42336 whole entry): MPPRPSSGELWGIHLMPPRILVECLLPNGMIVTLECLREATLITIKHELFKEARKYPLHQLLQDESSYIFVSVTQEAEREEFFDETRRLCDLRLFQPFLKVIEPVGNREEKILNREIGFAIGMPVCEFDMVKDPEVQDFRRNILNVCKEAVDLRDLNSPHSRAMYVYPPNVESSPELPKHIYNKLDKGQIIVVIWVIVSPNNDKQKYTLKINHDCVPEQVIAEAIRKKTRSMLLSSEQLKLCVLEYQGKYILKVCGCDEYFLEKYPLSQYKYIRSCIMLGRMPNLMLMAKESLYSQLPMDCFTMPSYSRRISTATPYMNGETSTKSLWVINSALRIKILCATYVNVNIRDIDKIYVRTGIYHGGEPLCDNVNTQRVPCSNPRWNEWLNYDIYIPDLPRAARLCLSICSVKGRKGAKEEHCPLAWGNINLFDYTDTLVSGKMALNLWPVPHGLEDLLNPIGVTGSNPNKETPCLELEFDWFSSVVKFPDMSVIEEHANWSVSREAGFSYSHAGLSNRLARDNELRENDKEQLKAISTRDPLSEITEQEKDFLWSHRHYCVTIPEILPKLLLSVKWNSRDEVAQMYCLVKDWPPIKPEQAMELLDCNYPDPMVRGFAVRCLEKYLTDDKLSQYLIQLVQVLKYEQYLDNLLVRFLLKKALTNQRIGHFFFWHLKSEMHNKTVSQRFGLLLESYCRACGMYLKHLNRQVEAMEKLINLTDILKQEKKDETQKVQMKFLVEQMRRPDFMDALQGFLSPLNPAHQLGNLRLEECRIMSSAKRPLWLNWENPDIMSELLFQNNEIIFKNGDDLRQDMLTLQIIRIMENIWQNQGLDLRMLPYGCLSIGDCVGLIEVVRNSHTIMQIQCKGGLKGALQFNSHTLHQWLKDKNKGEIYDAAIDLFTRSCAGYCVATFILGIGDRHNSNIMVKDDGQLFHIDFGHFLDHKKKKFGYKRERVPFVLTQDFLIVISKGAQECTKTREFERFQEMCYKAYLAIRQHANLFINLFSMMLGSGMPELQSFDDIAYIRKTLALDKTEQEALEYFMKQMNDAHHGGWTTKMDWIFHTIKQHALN
Sequence (P27986 whole entry partner): as the sequence (P27986 whole entry partner) above
Assay: PI3Kα assay (ADP-Glo Kinase Assay)
Assay type: biochemical
Settings: recombinant enzyme; IC50 (nM) or max inhibition (%) at 0.5 μM
recorded-metric: IC50 (nM)
Please give a number only; it is taken to be in nM.

Solved entries (count: 3):
>  <compound>
Cc1nc([C@@H](C)c2cc(Cl)c(F)c(C(=O)N[C@@H](C)c3ccnc(C(F)(F)F)c3)c2OC(C)C)n2ccnc(N)c12 [Compound 59A]

>  <assayed-target>
PI3K (p110α/p85α) (Homo sapiens, UniProt P42336)

>  <IC50, nM>
8300

$$$$
>  <compound>
Cc1nc([C@@H](C)c2cc(Cl)c(F)c(C(=O)N[C@@H]3CC[C@@H](O)C3)c2OC(C)C)n2ccnc(N)c12

>  <assayed-target>
PI3K (p110α/p85α) (Homo sapiens, UniProt P42336)

>  <IC50, nM>
14000

$$$$
>  <compound>
Cc1nc([C@@H](C)c2cc(Cl)c(F)c(C(=O)N[C@H](C)c3ccnc(C(F)(F)F)c3)c2OC(C)C)n2ccnc(N)c12 [Compound 59B]

>  <assayed-target>
PI3K (p110α/p85α) (Homo sapiens, UniProt P42336)

>  <IC50, nM>
14000

$$$$

As a next step, examine the compound that follows.
Prompt: # return recorded IC50 for input Cc1nc([C@@H](C)c2cc(Cl)c(F)c(C(=O)NCC3CC3)c2OC(C)C)n2ccnc(N)c12
Response: 36000
